IC50 listing for selected compounds.
Target or system: purified recombinant human JAK3 protein (Homo sapiens)
Sequence (P52333 whole entry): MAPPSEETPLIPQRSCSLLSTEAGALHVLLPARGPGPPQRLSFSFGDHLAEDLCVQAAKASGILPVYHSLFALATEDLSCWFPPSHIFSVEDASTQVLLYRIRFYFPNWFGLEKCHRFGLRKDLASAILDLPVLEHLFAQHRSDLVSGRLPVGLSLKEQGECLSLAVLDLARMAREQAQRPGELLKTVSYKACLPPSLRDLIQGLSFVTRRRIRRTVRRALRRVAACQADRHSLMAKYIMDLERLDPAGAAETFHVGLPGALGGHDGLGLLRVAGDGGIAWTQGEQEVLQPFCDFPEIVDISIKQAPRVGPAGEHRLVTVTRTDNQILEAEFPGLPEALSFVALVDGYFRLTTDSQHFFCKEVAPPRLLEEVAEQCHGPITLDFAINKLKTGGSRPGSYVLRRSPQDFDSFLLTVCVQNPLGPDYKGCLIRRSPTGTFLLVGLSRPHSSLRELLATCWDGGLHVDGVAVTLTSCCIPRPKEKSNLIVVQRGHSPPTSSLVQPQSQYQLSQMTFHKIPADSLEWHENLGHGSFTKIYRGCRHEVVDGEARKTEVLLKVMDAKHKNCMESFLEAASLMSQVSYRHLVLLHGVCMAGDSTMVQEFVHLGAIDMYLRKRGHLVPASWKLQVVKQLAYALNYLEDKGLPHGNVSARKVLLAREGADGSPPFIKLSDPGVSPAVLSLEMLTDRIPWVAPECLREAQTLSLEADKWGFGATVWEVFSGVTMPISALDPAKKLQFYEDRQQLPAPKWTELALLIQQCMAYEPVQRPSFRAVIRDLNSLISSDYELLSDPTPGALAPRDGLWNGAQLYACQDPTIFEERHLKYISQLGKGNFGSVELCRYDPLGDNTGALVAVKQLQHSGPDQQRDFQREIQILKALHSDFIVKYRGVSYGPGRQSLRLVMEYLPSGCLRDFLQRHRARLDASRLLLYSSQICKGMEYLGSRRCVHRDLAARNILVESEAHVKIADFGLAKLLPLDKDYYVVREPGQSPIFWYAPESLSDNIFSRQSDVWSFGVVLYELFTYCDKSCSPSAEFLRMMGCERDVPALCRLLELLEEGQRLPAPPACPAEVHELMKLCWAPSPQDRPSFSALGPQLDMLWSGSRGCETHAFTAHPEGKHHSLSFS
Procedure details: Measurement of JAK3 kinase-inhibitory activity
Measurement context: substrate peptide 1 μM, ATP 5 μM, 25° C., 80 minutes

Completed entries (count: 2):
In [3]: df
Out[3]:
                                   compound  measured_quantity  recorded_measurement
0  C=CC(=O)NC1CCC=C(c2ccnc3[nH]cc(-c4cnco4)c23)C1 (stereo not drawn) [Compound 48]               IC50              < 0.3 nM
1  C=CC(=O)NC1CCC=C(c2ccnc3[nH]cc(-c4cn[nH]c4)c23)C1 (stereo not drawn) [Compound 3]               IC50              < 0.3 nM

As a next step, examine the compound that follows.
Ask: Find the recorded IC50 belonging to C=CC(=O)NC1CCC=C(c2ccnc3[nH]cc(-c4ccccc4)c23)C1 (stereo not drawn) [Compound 1] and report it.
Result: < 0.3 nM
